- subject of test: UniProtKB Q13258
- Sequence (Q13258 1-359): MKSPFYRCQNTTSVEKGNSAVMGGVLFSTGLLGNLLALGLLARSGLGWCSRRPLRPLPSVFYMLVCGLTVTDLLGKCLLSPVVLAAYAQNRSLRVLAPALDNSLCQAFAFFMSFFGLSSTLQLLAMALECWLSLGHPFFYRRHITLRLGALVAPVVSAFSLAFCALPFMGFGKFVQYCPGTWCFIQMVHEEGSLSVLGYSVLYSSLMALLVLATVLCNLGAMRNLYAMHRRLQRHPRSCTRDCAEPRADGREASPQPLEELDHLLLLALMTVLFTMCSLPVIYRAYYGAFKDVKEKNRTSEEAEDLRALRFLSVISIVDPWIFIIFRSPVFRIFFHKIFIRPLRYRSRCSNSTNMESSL
- test method notes: Prostanoid receptor antagonism (FLIPR), DP
- Type: cell-based
- test parameters: Table 1
# Kb annotations
measured property: Kb (nM)

• CCCCCCCCNC(=O)c1coc([C@@H]2CCCN2Cc2cc(F)ccc2CCC(=O)NS(=O)(=O)C(F)(F)F)n1 [Example 12e] = 20
• COc1ccc(CCC(=O)NS(=O)(=O)C(F)(F)F)c(CN2CCC[C@H]2c2nc(C(=O)NCCCCC3CCCCC3)co2)c1 [Example 12c] = 17
• O=C(CCc1cc2c(cc1CN1CCC[C@H]1c1nc(C(=O)NCCCCC3CCCCC3)co1)OCO2)NS(=O)(=O)C(F)(F)F [Example 12d] = 3

---

- subject of test: EP3 receptor (Homo sapiens)
- Sequence (P43115 whole entry): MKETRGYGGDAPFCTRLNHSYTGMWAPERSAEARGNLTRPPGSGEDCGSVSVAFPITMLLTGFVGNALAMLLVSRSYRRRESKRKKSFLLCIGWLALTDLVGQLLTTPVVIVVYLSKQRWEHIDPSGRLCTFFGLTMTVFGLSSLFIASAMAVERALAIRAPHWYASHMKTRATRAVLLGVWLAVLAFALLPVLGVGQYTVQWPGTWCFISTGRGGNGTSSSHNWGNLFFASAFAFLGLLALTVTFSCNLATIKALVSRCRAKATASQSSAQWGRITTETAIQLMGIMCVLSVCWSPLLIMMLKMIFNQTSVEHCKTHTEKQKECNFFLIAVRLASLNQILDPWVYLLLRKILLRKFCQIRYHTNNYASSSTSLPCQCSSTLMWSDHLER
- test method notes: Prostanoid receptor antagonism (FLIPR), EP3
- Assay type: cell-based
- test parameters: Table 2
# Kb annotations
measured property: Kb

- COc1ccc(CCC(=O)NS(=O)(=O)N(C)C)c(CN2CCC[C@H]2c2nc(C(=O)NCCCCC3CCCCC3)co2)c1 [Example 12k]: 5600 nM
- COc1ccc(CCC(=O)NS(=O)(=O)CCCF)c(CN2CCC[C@H]2c2nc(C(=O)NCCCCC3CCCCC3)co2)c1 [Example 12h]: 50 nM
- COc1ccc(CCC(=O)NS(=O)(=O)c2ccc(Cl)s2)c(CN2CCC[C@H]2c2nc(C(=O)NCCCCC3CCCCC3)co2)c1 [Example 12j]: 10 nM
- CCS(=O)(=O)NC(=O)CCc1ccc(OC)cc1CN1CCC[C@H]1c1nc(C(=O)NCCCCC2CCCCC2)co1 [Example 12l]: 910 nM
- COc1ccc(CCC(=O)NS(=O)(=O)C(C)C)c(CN2CCC[C@H]2c2nc(C(=O)NCCCCC3CCCCC3)co2)c1 [Example 12i]: 480 nM

---

# Kb annotations
- subject of test: DP receptor (Homo sapiens, UniProt Q13258)
- test method notes: Prostanoid receptor antagonism (FLIPR), DP
- Format: cell-based
- test parameters: Table 2
measured property: Kb (µM)

- CCS(=O)(=O)NC(=O)CCc1ccc(OC)cc1CN1CCC[C@H]1c1nc(C(=O)NCCCCC2CCCCC2)co1 [Example 12l]: 0.04
- COc1ccc(CCC(=O)NS(=O)(=O)CCCF)c(CN2CCC[C@H]2c2nc(C(=O)NCCCCC3CCCCC3)co2)c1 [Example 12h]: 0.008
- COc1ccc(CCC(=O)NS(=O)(=O)c2ccc(Cl)s2)c(CN2CCC[C@H]2c2nc(C(=O)NCCCCC3CCCCC3)co2)c1 [Example 12j]: 0.028
- COc1ccc(CCC(=O)NS(=O)(=O)N(C)C)c(CN2CCC[C@H]2c2nc(C(=O)NCCCCC3CCCCC3)co2)c1 [Example 12k]: 0.08
- COc1ccc(CCC(=O)NS(=O)(=O)C(C)C)c(CN2CCC[C@H]2c2nc(C(=O)NCCCCC3CCCCC3)co2)c1 [Example 12i]: 0.044

---

- subject of test: FAAH Rat brain (Rattus norvegicus, UniProt P97612)
- Construct: from tissue; host or cells: rat brain membranes
- Sequence (P97612 1-579): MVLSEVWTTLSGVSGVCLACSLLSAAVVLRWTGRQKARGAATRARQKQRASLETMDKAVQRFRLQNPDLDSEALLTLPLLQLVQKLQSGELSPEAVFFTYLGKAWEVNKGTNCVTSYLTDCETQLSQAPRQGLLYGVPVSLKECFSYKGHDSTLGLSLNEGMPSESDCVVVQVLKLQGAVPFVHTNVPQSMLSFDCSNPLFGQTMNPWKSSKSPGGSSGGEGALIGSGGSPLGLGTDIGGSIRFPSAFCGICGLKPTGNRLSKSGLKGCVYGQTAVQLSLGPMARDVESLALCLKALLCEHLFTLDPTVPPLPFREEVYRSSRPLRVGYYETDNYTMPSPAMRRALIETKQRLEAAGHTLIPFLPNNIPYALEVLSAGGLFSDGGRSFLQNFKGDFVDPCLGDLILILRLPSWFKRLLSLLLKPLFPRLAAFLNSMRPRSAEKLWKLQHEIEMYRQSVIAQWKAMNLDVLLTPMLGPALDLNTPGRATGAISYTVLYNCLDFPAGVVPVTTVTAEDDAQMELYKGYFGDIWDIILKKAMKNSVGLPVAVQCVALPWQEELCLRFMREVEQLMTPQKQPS
- test method notes: FAAH inhibitory activity, rat brain membranes, [14C]-AEA hydrolysis
- Type: biochemical
- test parameters: Table 3; quantity, enzyme source and unit inferred; read-out: FAAH
pIC50: −log10 of the molar value.
# pIC50 annotations
measured property: pIC50

• COc1ccc(CCC(=O)O)c(C(=O)N2CCC[C@H]2c2nc(C(=O)NCCCCC3CCCCC3)co2)c1 [Example 19] = 6.74
• COc1ccc(CCC(=O)NS(C)(=O)=O)c(C(=O)N2CCC[C@H]2c2nc(C(=O)NCCCCC3CCCCC3)co2)c1 [Example 19b] = 7.52
• CCS(=O)(=O)NC(=O)CCc1ccc(OC)cc1C(=O)N1CCC[C@H]1c1nc(C(=O)NCCCCC2CCCCC2)co1 [Example 19a] = 7.70

---

# log10 Kb annotations
- subject of test: TP receptor (Homo sapiens, UniProt P21731)
- Sequence (P21731 whole entry): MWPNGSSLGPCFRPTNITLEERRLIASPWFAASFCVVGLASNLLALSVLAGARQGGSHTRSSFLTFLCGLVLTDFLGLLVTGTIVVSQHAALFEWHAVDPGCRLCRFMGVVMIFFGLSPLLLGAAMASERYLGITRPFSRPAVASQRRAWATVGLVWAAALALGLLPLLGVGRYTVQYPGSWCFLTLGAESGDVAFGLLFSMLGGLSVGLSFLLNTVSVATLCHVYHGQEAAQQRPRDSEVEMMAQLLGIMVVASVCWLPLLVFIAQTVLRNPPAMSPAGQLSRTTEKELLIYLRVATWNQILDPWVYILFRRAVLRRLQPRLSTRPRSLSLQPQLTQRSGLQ
- test method notes: Prostanoid receptor antagonism (FLIPR), TP
- Assay type: cell-based
- test parameters: Table 2
measured property: log10 Kb (log10 of the value in nM)

- CCS(=O)(=O)NC(=O)CCc1ccc(OC)cc1CN1CCC[C@H]1c1nc(C(=O)NCCCCC2CCCCC2)co1 [Example 12l]: 1.04
- COc1ccc(CCC(=O)NS(=O)(=O)c2ccc(Cl)s2)c(CN2CCC[C@H]2c2nc(C(=O)NCCCCC3CCCCC3)co2)c1 [Example 12j]: 0.60
- COc1ccc(CCC(=O)NS(=O)(=O)CCCF)c(CN2CCC[C@H]2c2nc(C(=O)NCCCCC3CCCCC3)co2)c1 [Example 12h]: 0.90
- COc1ccc(CCC(=O)NS(=O)(=O)N(C)C)c(CN2CCC[C@H]2c2nc(C(=O)NCCCCC3CCCCC3)co2)c1 [Example 12k]: 1.11
- COc1ccc(CCC(=O)NS(=O)(=O)C(C)C)c(CN2CCC[C@H]2c2nc(C(=O)NCCCCC3CCCCC3)co2)c1 [Example 12i]: 0.00

---

- subject of test: IP receptor (Homo sapiens)
- Sequence (P43119 whole entry): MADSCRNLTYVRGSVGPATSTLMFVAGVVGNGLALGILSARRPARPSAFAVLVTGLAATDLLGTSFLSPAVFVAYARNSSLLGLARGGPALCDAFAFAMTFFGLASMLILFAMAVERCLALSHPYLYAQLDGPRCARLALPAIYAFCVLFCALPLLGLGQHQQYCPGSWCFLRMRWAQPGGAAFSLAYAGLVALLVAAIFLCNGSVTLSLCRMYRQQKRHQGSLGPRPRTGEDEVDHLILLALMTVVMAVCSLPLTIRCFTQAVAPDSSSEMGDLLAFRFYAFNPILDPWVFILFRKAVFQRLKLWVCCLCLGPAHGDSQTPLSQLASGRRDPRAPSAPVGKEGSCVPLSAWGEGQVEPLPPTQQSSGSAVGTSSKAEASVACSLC
- test method notes: Prostanoid receptor antagonism (FLIPR), IP
- Format: cell-based
- test parameters: Table 1
Response key: fulfilled means Kb >= 900 nM; not fulfilled means Kb < 900 nM.

* COc1ccc(CCC(=O)NS(=O)(=O)C(F)(F)F)c(CN2CCC[C@H]2c2nc(C(=O)NCCCCC3CCCCC3)co2)c1 [Example 12c] | not fulfilled
* CCCCCCCCNC(=O)c1coc([C@@H]2CCCN2Cc2cc(OC)ccc2CCC(=O)NS(=O)(=O)C(F)(F)F)n1 [Example 12f] | not fulfilled
* CCCCCCCCNC(=O)c1coc([C@@H]2CCCN2Cc2cc(F)ccc2CCC(=O)NS(=O)(=O)C(F)(F)F)n1 [Example 12e] | not fulfilled
* O=C(CCc1ccc(F)cc1CN1CCC[C@H]1c1nc(C(=O)NCCCCC2CCCCC2)co1)NS(=O)(=O)C(F)(F)F [Example 12a] | not fulfilled
* O=C(CCc1cc2c(cc1CN1CCC[C@H]1c1nc(C(=O)NCCCCC3CCCCC3)co1)OCO2)NS(=O)(=O)C(F)(F)F [Example 12d] | fulfilled
* O=C(CCc1ccc(Cl)cc1CN1CCC[C@H]1c1nc(C(=O)NCCCCC2CCCCC2)co1)NS(=O)(=O)C(F)(F)F [Example 12b] | fulfilled

---

- subject of test: EP4 receptor (Homo sapiens)
- Sequence (P35408 whole entry): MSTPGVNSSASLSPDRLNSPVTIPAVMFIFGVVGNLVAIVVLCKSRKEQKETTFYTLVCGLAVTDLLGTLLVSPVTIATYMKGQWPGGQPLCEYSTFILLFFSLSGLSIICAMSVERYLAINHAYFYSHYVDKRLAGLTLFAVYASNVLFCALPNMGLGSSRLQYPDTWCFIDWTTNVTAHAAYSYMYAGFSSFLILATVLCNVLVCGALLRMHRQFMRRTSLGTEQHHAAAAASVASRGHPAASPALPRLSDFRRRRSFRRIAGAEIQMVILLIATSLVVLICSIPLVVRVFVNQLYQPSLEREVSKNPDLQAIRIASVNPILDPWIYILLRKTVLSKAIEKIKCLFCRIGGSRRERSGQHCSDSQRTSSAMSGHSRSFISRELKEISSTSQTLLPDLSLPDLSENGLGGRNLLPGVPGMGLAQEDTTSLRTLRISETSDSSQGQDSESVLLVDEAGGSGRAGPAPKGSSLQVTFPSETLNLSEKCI
- test method notes: Prostanoid receptor antagonism (FLIPR), EP4
- Assay type: cell-based
- test parameters: Table 2
# Kb annotations
measured property: Kb (nM)

• COc1ccc(CCC(=O)NS(=O)(=O)N(C)C)c(CN2CCC[C@H]2c2nc(C(=O)NCCCCC3CCCCC3)co2)c1 [Example 12k] = 400
• COc1ccc(CCC(=O)NS(=O)(=O)c2ccc(Cl)s2)c(CN2CCC[C@H]2c2nc(C(=O)NCCCCC3CCCCC3)co2)c1 [Example 12j] = 360
• COc1ccc(CCC(=O)NS(=O)(=O)C(C)C)c(CN2CCC[C@H]2c2nc(C(=O)NCCCCC3CCCCC3)co2)c1 [Example 12i] = 210
• COc1ccc(CCC(=O)NS(=O)(=O)CCCF)c(CN2CCC[C@H]2c2nc(C(=O)NCCCCC3CCCCC3)co2)c1 [Example 12h] = 150
• CCS(=O)(=O)NC(=O)CCc1ccc(OC)cc1CN1CCC[C@H]1c1nc(C(=O)NCCCCC2CCCCC2)co1 [Example 12l] = 160
